The values you see were collected from ChEMBL document CHEMBL1138058.

# test_protocol: Tmax in cynomolgus monkey at 5 mg/kg, po
# Assay type: ADME, organism-based, Macaca fascicularis
# Design: dose 5 mg/kg, route oral
# cond: in vivo
observable: Tmax (min)
Respond with the bare value in min.

q: Tmax for O=C(NC1CC1)c1cc(NCc2cnc(Nc3ccccn3)s2)c(F)cc1F ?
a: 45

###

# test_protocol: Bioavailability in cynomolgus monkey at 5 mg/kg, po
# Type: ADME, organism-based, Macaca fascicularis
# cond: in vivo
observable: bioavailability (%)
Respond with the bare value in %.

q: bioavailability for O=C(NC1CC1)c1cc(NCc2cnc(Nc3ccccn3)s2)c(F)cc1F ?
a: 52

###

# test_protocol: Half life in Balb/C mouse at 90 mg/kg, po
# Format: ADME, organism-based
# Design: dose 90 mg/kg, route oral
# cond: in vivo
observable: half-life (h)
Respond with the bare value in h.

q: half-life for O=C(NC1CC1)c1cc(NCc2cnc(Nc3ccccn3)s2)c(F)cc1F ?
a: 1.7

###

observable: IC50 (nM)
Respond with the bare value in nM.

q: I'm curious: which IC50 was measured for O=C(NC1CC1)c1cc(NCc2cnc(Nc3ccccn3)s2)c(F)cc1F tested on UniProtKB P09619?
a: 200

###

# test_protocol: Bioavailability in Sprague-Dawley rat at 50 mg/kg, po
# Assay type: ADME, organism-based
# cond: in vivo
observable: bioavailability (%)
Respond with the bare value in %.

q: bioavailability for O=C(NC1CC1)c1cc(NCc2cnc(Nc3ccccn3)s2)c(F)cc1F ?
a: 100

###

# test_protocol: Mean residence time in Sprague-Dawley rat at 50 mg/kg, po
# Assay type: ADME, organism-based
# Set-up: dose 50 mg/kg, route oral
# cond: in vivo
observable: MRT (h)
Respond with the bare value in h.

q: MRT for O=C(NC1CC1)c1cc(NCc2cnc(Nc3ccccn3)s2)c(F)cc1F ?
a: 3.5

###

# target_entity: MAP kinase-activated protein kinase 2 (Homo sapiens, UniProt P49137)
# Sequence (P49137 whole entry): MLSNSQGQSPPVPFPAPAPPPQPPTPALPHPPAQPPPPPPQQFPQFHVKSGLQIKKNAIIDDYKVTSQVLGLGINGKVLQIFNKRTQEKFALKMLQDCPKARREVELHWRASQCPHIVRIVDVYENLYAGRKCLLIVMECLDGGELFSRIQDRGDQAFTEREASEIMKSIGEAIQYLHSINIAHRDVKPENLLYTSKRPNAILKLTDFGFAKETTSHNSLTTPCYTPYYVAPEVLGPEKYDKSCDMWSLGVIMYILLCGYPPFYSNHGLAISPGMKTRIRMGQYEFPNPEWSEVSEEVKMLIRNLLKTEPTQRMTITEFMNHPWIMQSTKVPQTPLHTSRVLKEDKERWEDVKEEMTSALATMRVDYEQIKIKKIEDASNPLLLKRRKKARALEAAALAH
# test_protocol: Inhibition of MAPKAPK2
observable: IC50

q: IC50 for O=C(NC1CC1)c1cc(NCc2cnc(Nc3ccccn3)s2)c(F)cc1F ?
a: > 50 µM

###

# test_protocol: Clearance in Balb/C mouse at 10 mg/kg, iv
# Format: ADME, organism-based
# Parameters: dose 10 mg/kg, route intravenous
# cond: in vivo
observable: clearance (mL/min/kg)
Respond with the bare value in mL/min/kg.

q: clearance for O=C(NC1CC1)c1cc(NCc2cnc(Nc3ccccn3)s2)c(F)cc1F ?
a: 11.8

###

# test_protocol: Volume of distribution in Sprague-Dawley rat at 10 mg/kg, iv
# Assay type: ADME, organism-based
# Parameters: dose 10 mg/kg, route intravenous
# cond: in vivo, read-out: Vss
observable: Vd
Answer format reminder: number followed by unit.

q: Vd for O=C(NC1CC1)c1cc(NCc2cnc(Nc3ccccn3)s2)c(F)cc1F ?
a: 1.1 L/kg

###

# test_protocol: Clearance in cynomolgus monkey at 1 mg/kg, iv
# cond: in vivo
observable: clearance (mL/min/kg)
Respond with the bare value in mL/min/kg.

q: clearance for O=C(NC1CC1)c1cc(NCc2cnc(Nc3ccccn3)s2)c(F)cc1F ?
a: 3.9

###

# target_entity: Mast/stem cell growth factor receptor Kit (Homo sapiens, UniProt P10721)
# Sequence (P10721 whole entry): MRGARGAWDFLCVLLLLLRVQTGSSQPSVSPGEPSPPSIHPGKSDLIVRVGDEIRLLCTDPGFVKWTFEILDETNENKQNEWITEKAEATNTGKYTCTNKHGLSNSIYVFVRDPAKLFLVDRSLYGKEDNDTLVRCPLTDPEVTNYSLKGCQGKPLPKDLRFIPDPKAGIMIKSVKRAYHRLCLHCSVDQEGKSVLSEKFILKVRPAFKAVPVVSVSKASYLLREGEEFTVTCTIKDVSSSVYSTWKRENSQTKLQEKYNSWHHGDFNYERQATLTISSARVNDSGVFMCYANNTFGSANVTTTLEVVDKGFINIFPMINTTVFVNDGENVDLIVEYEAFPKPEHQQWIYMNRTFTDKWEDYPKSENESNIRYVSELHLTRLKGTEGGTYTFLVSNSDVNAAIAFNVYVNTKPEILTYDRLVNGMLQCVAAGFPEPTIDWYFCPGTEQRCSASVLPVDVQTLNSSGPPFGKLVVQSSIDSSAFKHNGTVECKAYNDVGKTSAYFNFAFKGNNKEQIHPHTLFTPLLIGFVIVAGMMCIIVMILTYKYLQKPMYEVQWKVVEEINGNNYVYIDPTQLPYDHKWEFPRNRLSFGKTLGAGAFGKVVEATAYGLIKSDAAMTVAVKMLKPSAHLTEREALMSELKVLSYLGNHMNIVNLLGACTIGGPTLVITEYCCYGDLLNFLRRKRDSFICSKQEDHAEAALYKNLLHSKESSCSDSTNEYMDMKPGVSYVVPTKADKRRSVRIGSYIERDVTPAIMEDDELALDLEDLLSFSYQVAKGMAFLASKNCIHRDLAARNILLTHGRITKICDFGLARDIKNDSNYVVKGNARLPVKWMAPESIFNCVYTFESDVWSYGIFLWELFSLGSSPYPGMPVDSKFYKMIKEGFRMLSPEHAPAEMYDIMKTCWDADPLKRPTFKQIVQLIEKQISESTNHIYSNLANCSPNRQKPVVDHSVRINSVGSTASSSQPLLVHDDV
observable: pIC50
Quick note: pIC50 values are minus log10 of concentrations in mol/L.

q: pIC50 for O=C(NC1CC1)c1cc(NCc2cnc(Nc3ccccn3)s2)c(F)cc1F ?
a: 6.43
